system: SW-620 colon; test: NCI-60 one-dose screen, 48 h; conditions: 10 µM unless noted
This is part of a sample that, as a whole, favours compounds with a hit. Of some 83,000 tested, about 20% had one in any assay. Calls of active or inactive are those of the source. The calls were made as follows: active = growth percent below 10; inactive = the rest.
Outcome codes: Yes = active, No = inactive

>>> answer_label("Oc1ccc(Cl)cc1-c1cc(-c2ccc(Cl)cc2)n[nH]1")
"No"
>>> answer_label("O=S(=O)(O)CCl")
"No"
>>> answer_label("Nc1cccc2c1CN(C1CCC(=O)NC1=O)C2=O (stereo unspecified)")
"No"
>>> answer_label("ClC1=C(Cl)C(Cl)=C(Cl)C1=Cc1ccc(Cl)cc1Cl")
"Yes"
>>> answer_label("COc1ccc(-n2c(C)cc(-c3ccccc3)c2C)cc1")
"No"
>>> answer_label("CCN1C(=O)N(CC)C2Nn3c(s/c(=C\\c4cccc(F)c4)c3=O)=NC21 (stereo unspecified)")
"No"
>>> answer_label("CCn1cc(C2NC(=O)c3cc(F)ccc3N2)c2cccc(Cl)c21 (stereo unspecified)")
"No"
>>> answer_label("COc1ccc(-c2nnc(COc3ccc(NS(=O)(=O)c4ccc(OC)cc4)cc3F)o2)cc1")
"No"
>>> answer_label("NC(CC(N)C(=O)O)C(=O)O (stereo unspecified)")
"No"
>>> answer_label("O=C1CCC(=O)N1Cc1ccccc1")
"No"
>>> answer_label("CC/C=C\\C[C@H](O)C/C=C1/C(=O)C(Cl)=C[C@@H]1C/C=C\\CCCC(=O)OC")
"Yes"
>>> answer_label("N#Cc1c(NC(=O)c2ccc([N+](=O)[O-])o2)[n+]([O-])c2cc(F)c(F)cc2[n+]1[O-]")
"No"
>>> answer_label("COc1cccc2cc(-c3cc4ccccc4[nH]3)c(=NC(=O)c3ccc(Cl)cc3)oc12")
"Yes"
>>> answer_label("CCCCCCCCCCCCCCCCC(Br)C(=O)O (stereo unspecified)")
"No"
>>> answer_label("CCOC(=O)c1cc(/C(=N\\O)c2cc(OC)c(OC)c(OC)c2)n2c(C)cccc12")
"No"
>>> answer_label("C/C(=N\\NC(=O)CC#N)c1cc2cc(Cl)ccc2o1")
"No"
>>> answer_label("CCSc1nnc(NC(=O)COc2ccc(Cl)cc2C)s1")
"No"
>>> answer_label("O=C(Nc1cccc(C(F)(F)F)c1)Nc1ccc(OCc2nnc(-c3ccccc3)o2)c(F)c1")
"No"
>>> answer_label("O=S(=O)(NCCCNc1nccc(-c2c(-c3ccc(O)cc3)nc3sccn23)n1)c1ccc(F)cc1")
"Yes"
>>> answer_label("C=CCOc1cccc(/C=C/C(=O)c2sc(Nc3cccnc3)nc2C)c1")
"No"
>>> answer_label("COc1ccc(/C=C/C(=O)/C=C/c2cc3ccc(Cl)cc3[nH]c2=O)cc1")
"No"
>>> answer_label("CCCCNC(=O)NS(=O)(=O)c1ccc(N2N=C(c3ccc(C)cc3C)CC2c2ccc(OC)cc2)cc1 (stereo unspecified)")
"No"
>>> answer_label("C=C1C(=O)O[C@H]2[C@H](O)[C@@H](C)CCC/C(C)=C/CC[C@@]3(C)O[C@@H]3C[C@@H]12")
"No"
>>> answer_label("CCOC(=O)/C=C\\C(=O)NC(N)=O")
"No"
>>> answer_label("O=C1Nc2cc(Cl)ccc2/C1=C/c1ccc(N2CCOCC2)s1")
"No"
>>> answer_label("O=C1OC(c2ccccc2)=N/C1=C\\c1ccc([N+](=O)[O-])cc1")
"No"
>>> answer_label("CC(Br)C(O)c1cc2c(cc1Br)OCO2 (stereo unspecified)")
"No"
>>> answer_label("CCN(CC)CCCC(C)N=c1cc(Nc2cc(=NC(C)CCCN(CC)CC)c3cc(OC)ccc3o2)oc2ccc(OC)cc12 (stereo unspecified)")
"Yes"
>>> answer_label("CCC1=C[C@@H]2CN(C1)Cc1c([nH]c3ccccc13)[C@@](C(=O)OC)(c1cc3c(cc1OC)N(C=O)[C@H]1[C@@](O)(C(=O)OC)[C@H](OC(C)=O)[C@]4(CC)[C@@H]5C[C@@H]5CN5CC[C@]31[C@@H]54)C2")
"No"
>>> answer_label("CC/C(=C(\\c1ccc(O)cc1)c1ccc(OCCN(C)CCN(C)C(=O)CCC(=O)c2c(C)[nH]c(/C=C3\\N=C(c4ccc[nH]4)C=C3OC)c2C)cc1)c1ccccc1")
"No"
>>> answer_label("N#CC1=C(N)OC2=C(C(=O)CCC2)C1c1ccco1 (stereo unspecified)")
"No"
>>> answer_label("COc1ccc(NC(=O)CSc2nc3ccccc3c(=O)n2Cc2cc(OC)c(OC)c(OC)c2)cc1")
"No"
>>> answer_label("O=C(CN1CCOCC1)Nc1ccc(-c2nc3ccccc3s2)cc1")
"No"
>>> answer_label("CCC(=O)Nc1ccccc1C#C/C=C\\C#Cc1ccccc1SC")
"No"
>>> answer_label("COc1ccc(/C=C/C(=O)c2cc(OC)c(OC)c(OC)c2)cc1OCc1cn(Cc2ccc(F)cc2)nn1")
"No"
>>> answer_label("O=C1CCCCN1CCCCC#Cc1ccccc1C#Cc1ccc([N+](=O)[O-])cc1")
"No"
>>> answer_label("CC/C=C\\C[C@H]1C/C=C2/C(=O)C(Cl)=C[C@@H]2C/C=C\\CCCC(=O)O1")
"Yes"
>>> answer_label("O=C1CCCCC=C1C[N+](=O)[O-]")
"No"
>>> answer_label("COc1cc(Cn2c(SCCC(=O)Nc3ccc(F)cc3)nc3ccccc3c2=O)cc(OC)c1OC")
"No"
>>> answer_label("O=C(Cc1n[nH]c(=O)c2ccccc12)OCc1c(Cl)cccc1Cl")
"No"
>>> answer_label("CCOP(=O)(CCN1CCN(CCCCCOc2cc3c(cc2OC)C(=O)N2CCC[C@H]2C=N3)CC1)OCC")
"No"
